# Experimental System: human MOPr (Homo sapiens)
# Sequence (P35372 whole entry): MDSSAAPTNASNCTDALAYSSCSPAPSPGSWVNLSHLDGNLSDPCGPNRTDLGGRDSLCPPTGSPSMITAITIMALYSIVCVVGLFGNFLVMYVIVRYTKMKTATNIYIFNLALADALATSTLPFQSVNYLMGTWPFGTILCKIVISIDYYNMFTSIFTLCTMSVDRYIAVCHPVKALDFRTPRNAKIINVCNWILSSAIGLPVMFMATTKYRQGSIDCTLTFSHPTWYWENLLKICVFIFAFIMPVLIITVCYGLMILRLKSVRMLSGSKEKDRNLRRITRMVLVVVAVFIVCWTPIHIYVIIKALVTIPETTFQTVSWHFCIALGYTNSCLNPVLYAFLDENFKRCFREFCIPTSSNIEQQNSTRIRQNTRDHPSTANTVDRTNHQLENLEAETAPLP
# Assay Procedure: BRET1 β-arrestin-2 recruitment assay;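 also: Emax relative to maximal DAMGO-induced BRET as 100%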
# Assay type: cell-based
# Set-up: expressed in transfected cells; host or cells: HEK293 cells stably expressing eYFP-β-arrestin-2, transiently transfected with the Rluc8-MOP plasmid
# Measurement Context: read-out: MOPr (β-arrestin-2) Emax
Starred links: 1 amine or outer side, 2 acyl side, 3 side chain; linkers in the order of their positions; H or OH if unused. Non-standard residues stand in square brackets, D forms with d. Residues, ends and D or L forms follow the SMILES beside them. Nva(5-(4-Bn-piperidin-1-yl)) = N[C@@H](CCCN1CCC(Cc2ccccc2)CC1)C(=O)O; X5 = O=C1[C@@H](N[*:1])Cc2ccccc2CN1CCCC(=O)[*:2]; X1 = O=C1[C@@H](N[*:1])Cc2ccccc2CN1CCC(=O)[*:2]; Dmt = Cc1cc(O)cc(C)c1C[C@H](N)C(=O)O
Answer each item with its documented Emax.
Give just the numeric value; % need not be written.

Please fill in: Emax reported for Cc1cc(O)cc(C)c1C[C@H](N)C(=O)N[C@H](CCCNC(=N)N)C(=O)N[C@H]1Cc2ccccc2CN(CCC(=O)N[C@@H](CCCN2CCC(Cc3ccccc3)CC2)C(=O)N[C@@H](CC(C)C)C(N)=O)C1=O [DP0003, H-Dmt-D-Arg-Aba-β-Ala-Bpa-Leu-NH2] (H-[Dmt][dR][X1][Nva(5-(4-Bn-piperidin-1-yl))]L-NH2) = 38

Please fill in: Emax reported for Cc1cc(O)cc(C)c1C[C@H](N)C(=O)N[C@H](CCCNC(=N)N)C(=O)N[C@H]1Cc2ccccc2CN(CCCC(=O)N[C@@H](CCCN2CCC(Cc3ccccc3)CC2)C(=O)N[C@H](C(N)=O)C(C)C)C1=O [DP0020, H-Dmt-D-Arg-AbaGABA-Bpa-Val-NH2] (H-[Dmt][dR][X5][Nva(5-(4-Bn-piperidin-1-yl))]V-NH2) = 53

src = patent US20210002231A1
